Recorded below: pIC50, system Renin (Homo sapiens).
pIC50: −log10 of the molar value.
Property: pIC50

>>> recorded_measurement("CC(C)C[C@H](NC(=O)CC(O)[C@H](CC(C)C)NC(=O)[C@H](Cc1ccccc1)CC(O)[C@H](Cc1ccccc1)NC(=O)OCc1ccccc1)C(=O)NCc1ccccc1 (stereo partly drawn)")
5.43
>>> recorded_measurement("CC(C)C[C@H](NC(=O)CC(O)[C@H](CC(C)C)NC(=O)CC(O)C(O)[C@H](Cc1ccccc1)NC(=O)OC(C)(C)C)C(=O)NCc1ccccc1 (stereo partly drawn)")
5.85
>>> recorded_measurement("CC(C)C[C@H](NC(=O)CC(O)[C@H](CC(C)C)NC(=O)CCC[C@H](Cc1ccccc1)NC(=O)OC(C)(C)C)C(=O)NCc1ccccc1 (stereo partly drawn)")
4.64

----------
pIC50: −log10 of the molar value.
Recorded below: pIC50, system Renin (Homo sapiens, UniProt P00797).
Property: pIC50

>>> recorded_measurement("CC(C)CC(=O)N[C@@H](Cc1ccccc1)C1OC1CC(=O)N[C@@H](CC(C)C)C(O)CC(=O)N[C@@H](CC(C)C)C(=O)NCc1ccccc1 (stereo partly drawn)")
4.54
>>> recorded_measurement("CC(C)C[C@H](NC(=O)C[C@@H](O)C(Cc1ccccc1)NC(=O)C/C=C/[C@H](Cc1ccccc1)NC(=O)OC(C)(C)C)C(=O)NCc1ccccc1 (stereo partly drawn)")
5.04
>>> recorded_measurement("CC(C)C[C@H](NC(=O)CC(O)[C@H](CC(C)C)NC(=O)CC(O)C(O)[C@H](CC1CCCCC1)NC(=O)OC(C)(C)C)C(=O)NCc1ccccc1 (stereo partly drawn)")
5.19

----------
Biological target: Renin (monkey)
Assay: The compound was tested in vitro for inhibitory activity against Renin in monkey plasma
Property: IC50 (nM)

>>> recorded_measurement("CC(C)C[C@H](NC(=O)CC(O)[C@H](CC(C)C)NC(=O)CNC(=O)[C@H](Cc1ccccc1)NC(=O)OC(C)(C)C)C(=O)NCc1ccccc1 (stereo partly specified)")
1100

Where do these numbers come from? They come from ChEMBL document CHEMBL1124705.
